Parameter: Inhibition of VEGF-induced proliferation of HUVEC cells (IC50, nM). Scope: all listed entries.
biological target: VEGFR-2 (KDR) of HUVEC cells (human, UniProt P35968 20-1356); test: cell-based or functional assay
Sequence (P35968 20-1356): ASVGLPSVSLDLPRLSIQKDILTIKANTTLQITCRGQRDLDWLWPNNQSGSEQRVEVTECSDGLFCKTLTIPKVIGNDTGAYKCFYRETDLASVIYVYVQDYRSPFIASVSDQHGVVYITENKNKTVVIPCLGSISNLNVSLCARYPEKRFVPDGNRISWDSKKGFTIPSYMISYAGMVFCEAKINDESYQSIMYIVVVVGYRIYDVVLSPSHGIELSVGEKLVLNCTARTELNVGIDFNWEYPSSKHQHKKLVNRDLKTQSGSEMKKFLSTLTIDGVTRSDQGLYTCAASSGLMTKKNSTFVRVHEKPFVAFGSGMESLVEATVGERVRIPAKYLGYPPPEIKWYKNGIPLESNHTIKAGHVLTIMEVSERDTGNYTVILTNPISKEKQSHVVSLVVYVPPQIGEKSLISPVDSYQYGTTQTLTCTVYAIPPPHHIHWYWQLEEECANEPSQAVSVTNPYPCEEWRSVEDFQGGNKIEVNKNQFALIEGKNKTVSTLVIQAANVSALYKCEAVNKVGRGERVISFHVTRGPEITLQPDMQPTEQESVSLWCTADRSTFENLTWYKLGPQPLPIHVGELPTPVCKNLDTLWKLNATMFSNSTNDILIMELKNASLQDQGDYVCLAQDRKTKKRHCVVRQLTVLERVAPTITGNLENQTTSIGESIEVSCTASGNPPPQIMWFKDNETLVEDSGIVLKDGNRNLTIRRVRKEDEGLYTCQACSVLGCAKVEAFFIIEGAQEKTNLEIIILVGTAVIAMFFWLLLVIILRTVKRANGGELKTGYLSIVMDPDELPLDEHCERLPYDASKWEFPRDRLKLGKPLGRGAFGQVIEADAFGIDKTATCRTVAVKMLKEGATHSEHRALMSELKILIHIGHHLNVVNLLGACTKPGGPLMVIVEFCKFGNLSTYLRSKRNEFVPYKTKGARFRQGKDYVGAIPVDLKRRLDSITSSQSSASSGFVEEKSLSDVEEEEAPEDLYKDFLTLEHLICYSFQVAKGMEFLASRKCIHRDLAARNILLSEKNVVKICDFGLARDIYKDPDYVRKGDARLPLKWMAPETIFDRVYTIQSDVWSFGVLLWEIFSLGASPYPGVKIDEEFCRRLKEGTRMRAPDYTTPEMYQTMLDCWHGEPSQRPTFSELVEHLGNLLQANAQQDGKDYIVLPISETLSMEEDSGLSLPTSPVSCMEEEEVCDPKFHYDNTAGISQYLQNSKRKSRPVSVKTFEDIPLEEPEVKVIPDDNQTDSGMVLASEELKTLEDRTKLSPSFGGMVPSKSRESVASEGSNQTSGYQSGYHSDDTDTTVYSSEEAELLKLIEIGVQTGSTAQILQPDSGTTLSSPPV

Consider the following illustrative entries.
{"binder": "M5FL, E. coli-expressed, His6 (designed binder, soluble E. coli form with Ser100) VSDVPRDLEVVAATPTSLLISWRHPHFPTRYYRITYGETGGNSPVQEFTVPLQPPLATISGLKPGVDYTITVYAVTKERNGRELFTPISINYRTEIDKPSQHHHHHH", "assay-value": "8.5 nM"}
{"binder": "E18, E. coli-expressed, His6 (designed binder, soluble E. coli form; N-terminal residues added for expression not described) EVVAATPTSLLISWRHPHFPTRYYRITYGETGGNSPVQEFTVPLQPPTATISGLKPGVDYTITGYAVTVERNGRELNTPISINYRTEIDKPSQHHHHHH", "assay-value": "12.8 nM"}
{"binder": "E19, E. coli-expressed, His6 (designed binder, soluble E. coli form; N-terminal residues added for expression not described) EVVAATPTSLLISWRHPHFPTRYYRITYGETGGNSPVQEFTVPLQPPTATISGLKPGVDYTITGYAVTVERNGRHLMTPISINYRTEIDKPSQHHHHHH", "assay-value": "11.8 nM"}

Which value of Inhibition of VEGF-induced proliferation of HUVEC cells (IC50, nM) has been reported for E29, E. coli-expressed, His6 (designed binder, soluble E. coli form; N-terminal residues added for expression not described) EVVAATPTSLLISWRHPHFPTRYYRITYGETGGNSPVQEFTVPLQPPTATISGLKPGVDYTITGYAVTVERNGRVLMTPISINYRTEIDKPSQHHHHHH in the records?
8.4 nM

Cited source: patent US20100310549A1
